Consider the following compounds and their measured IC50 readings.
Biological target: human MRGPRD (Homo sapiens, UniProt Q8TDS7)
Sequence (Q8TDS7 whole entry): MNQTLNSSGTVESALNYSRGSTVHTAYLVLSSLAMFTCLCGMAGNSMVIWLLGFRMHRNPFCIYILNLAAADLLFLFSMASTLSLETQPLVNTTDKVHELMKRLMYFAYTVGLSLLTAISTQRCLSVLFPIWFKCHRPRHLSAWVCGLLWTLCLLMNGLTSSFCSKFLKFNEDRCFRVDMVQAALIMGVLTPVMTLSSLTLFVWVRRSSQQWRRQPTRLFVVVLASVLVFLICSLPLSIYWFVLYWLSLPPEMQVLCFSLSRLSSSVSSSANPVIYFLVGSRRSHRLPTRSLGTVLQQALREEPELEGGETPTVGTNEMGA
Assay: MRGPRD antagonist activity, IP-One HTRF assay in CHO cells stably expressing human MRGPRD (versus 100 μM β-Alanine agonist)
Type: cell-based

Here's what some known entries look like.
1. COc1cccc(-c2nc([C@H]3CCCN(C(=O)c4cccc(F)c4)C3)n3ccccc23)c1 = 0.1 to 0.5 µM
2. COC/C=C/c1nc([C@@H]2CCCN(C(=O)Nc3ccc(N(C)C)cc3)C2)n2ccccc12 = > 3 µM

**Query** Identify measured IC50 associated with COc1cccc(-c2nc([C@@H]3CCCN(C(=O)NCCc4nc(C)cs4)C3)n3ccccc23)c1
**Result** 0.1 to 0.5 µM

**Query** Give a short answer stating reported IC50 for COc1cccc(-c2nc([C@@H]3CCCN(C(=O)Nc4ccc5cccnc5c4)C3)n3ccccc23)c1 .
**Result** < 0.1 µM

**Query** Let me know recorded IC50 for CCc1ccccc1NC(=O)N1CCCC(c2nc(-c3cccc(OC)c3)c3ccccn23)C1 (centres unmarked) , thanks.
**Result** > 3 µM

====

Target: human MRGPRD (Homo sapiens, UniProt Q8TDS7)
Assay: MRGPRD antagonist activity, IP-One HTRF assay in CHO cells stably expressing human MRGPRD (versus 100 μM β-Alanine agonist)
pIC50: −log10 of the molar value.
Catalogue of pIC50 values

Consider the worked cases shown below.
1. CCOc1ccc(NC(=O)N2CCC[C@@H](c3nc(-c4cccc(OC)c4)c4ccccn34)C2)cc1 = > 7.00
2. COc1cccc(-c2nc([C@@H]3CCCN(C(=O)Nc4ccc(N(C)C)c(F)c4)C3)n3ccccc23)c1 = > 7.00
3. COc1cccc(-c2nc([C@@H]3CCCN(C(=O)Nc4cccc(C)c4)C3)n3ccccc23)c1 = 6.30 to 7.00
4. COc1cccc(-c2nc(C3CCCN(C(=O)Nc4ccccc4F)C3)n3ccc(C)cc23)c1 (stereo not shown) = 6.00 to 6.30

**Query** Print human MRGPRD (Homo sapiens, UniProt Q8TDS7) pIC50 for COc1cccc(-c2nc([C@@H]3CCCN(S(=O)(=O)Cc4ccc(F)cc4)C3)n3ccccc23)c1 .
**Result** > 7.00

**Query** Answer briefly: pIC50 recorded on human MRGPRD (Homo sapiens, UniProt Q8TDS7) for COc1cccc(-c2nc([C@@H]3CCCN(C(=O)Nc4ccc5ccccc5c4)C3)n3ccccc23)c1
**Result** 6.30 to 7.00

**Query** Fill in pIC50 for CN(C)c1ccc(NC(=O)N2CCC[C@@H](c3nc(-c4nn(C)c5ccccc45)c4ccccn34)C2)cc1 tested with human MRGPRD (Homo sapiens, UniProt Q8TDS7).
**Result** 6.00 to 6.30

====

In this section we review reported IC50 values for a set of compounds.
Target: human MRGPRD (Homo sapiens)
Assay: MRGPRD antagonist activity, IP-One HTRF assay in CHO cells stably expressing human MRGPRD (versus 100 μM β-Alanine agonist)
Format: cell-based

The cases that follow already have their IC50 on record.
1) COc1cccc(-c2nc([C@@H]3CCCN(C(=O)Nc4ccc5c(c4)CCC5)C3)n3ccccc23)c1 [Compound 5-32] = 100 to 500 nM
2) COc1cccc(-c2nn([C@@H]3CCCN(C(=O)Nc4cccc(N(C)C)c4)C3)c3ncccc23)c1 [Compound 20-2] = < 100 nM
3) COc1cccc(-c2nc([C@@H]3CCCN(C(=O)Nc4ccccc4C(C)=O)C3)n3ccccc23)c1 [Compound 5-34] = 1000 to 3000 nM
4) COc1cccc(-c2nc([C@@H]3CCCN(C(=O)Nc4cccc5c4OCO5)C3)n3ccccc23)c1 [Compound 5-35] = < 100 nM
5) COc1cccc(-c2nc([C@@H]3CCCN(C(=O)Nc4ccccc4C(=O)N(C)C)C3)n3ccccc23)c1 [Compound 5-33] = 1000 to 3000 nM
6) COc1cccc(-c2nc([C@@H]3CCCN(C(=O)NCc4nccs4)C3)n3ccccc23)c1 [Compound 5-45] = < 100 nM

**Query** Provide measured IC50 value, entry: COc1cccc(-c2nc(C3CCCN(S(=O)(=O)c4ccccc4F)C3)n3ccccc23)c1 (stereo not shown) [Compound 16-1]
**Result** 500 to 1000 nM
